Reported IC50 values are given for each entry in this list.
targetOrSystem: c-Kit kinase (Homo sapiens)
Sequence (P10721 26-976): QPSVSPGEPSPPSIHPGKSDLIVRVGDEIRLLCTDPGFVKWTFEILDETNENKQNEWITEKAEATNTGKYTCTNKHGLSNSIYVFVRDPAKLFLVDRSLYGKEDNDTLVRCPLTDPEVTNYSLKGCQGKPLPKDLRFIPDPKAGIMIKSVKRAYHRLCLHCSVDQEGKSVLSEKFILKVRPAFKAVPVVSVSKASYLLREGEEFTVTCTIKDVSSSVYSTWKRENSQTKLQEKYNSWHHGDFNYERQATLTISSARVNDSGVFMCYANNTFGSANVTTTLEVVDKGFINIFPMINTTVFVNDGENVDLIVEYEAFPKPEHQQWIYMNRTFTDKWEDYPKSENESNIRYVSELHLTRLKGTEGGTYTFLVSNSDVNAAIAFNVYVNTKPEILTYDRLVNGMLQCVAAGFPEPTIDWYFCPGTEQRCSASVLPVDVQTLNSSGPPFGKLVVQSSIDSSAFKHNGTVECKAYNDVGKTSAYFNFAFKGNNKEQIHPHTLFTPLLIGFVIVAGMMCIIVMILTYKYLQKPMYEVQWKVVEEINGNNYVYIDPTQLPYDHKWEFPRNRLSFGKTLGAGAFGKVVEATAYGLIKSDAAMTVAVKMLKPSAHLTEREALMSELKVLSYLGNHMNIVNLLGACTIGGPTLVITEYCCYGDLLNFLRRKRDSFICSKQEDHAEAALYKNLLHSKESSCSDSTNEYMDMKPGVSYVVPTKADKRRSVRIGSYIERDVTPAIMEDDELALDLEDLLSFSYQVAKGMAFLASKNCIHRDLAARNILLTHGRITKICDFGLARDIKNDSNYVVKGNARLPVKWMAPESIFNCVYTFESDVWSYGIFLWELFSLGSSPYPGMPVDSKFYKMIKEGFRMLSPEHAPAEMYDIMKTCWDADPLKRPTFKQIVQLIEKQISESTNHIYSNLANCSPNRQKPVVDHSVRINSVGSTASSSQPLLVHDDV
methodDescription: c-Kit AlphaScreen kinase assay;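 also: c-Kit kinase phosphorylating biotinylated poly(Glu,Tyr), ATP near its KM, 1 h reaction at ambient temperature, AlphaScreen chemiluminescence with streptavidin donor and anti-phosphotyrosine acceptor beads, 10-point inhibitor titration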
Type: biochemical
testParameters: Table 4, inhibition as IC50 class

1. COc1cc2c(Oc3ccc(NC(=O)C(=O)NCCC(C)C)cc3F)ccnc2cc1OCC1CCNCC1 = < 50 nM
2. COc1cc2c(Oc3ccc(NC(=O)C(=O)NCc4ccccc4OC(F)(F)F)cc3F)ccnc2cc1OCC1CCNCC1 = < 50 nM

According to the records, this compound `COc1cc2c(Oc3ccc(NC(=O)C(=O)NCc4cccc(OC(F)(F)F)c4)cc3F)ccnc2cc1OCC1CCNCC1` displays IC50 of < 50 nM

According to the records, this compound `COc1cc2c(Oc3ccc(NC(=O)C(=O)Nc4cccc(F)c4)cc3F)ccnc2cc1OCC1CCNCC1` displays IC50 of 50 to 500 nM

According to the records, this compound `COc1ccc(CCN(C)C(=O)C(=O)Nc2ccc(Oc3ccnc4cc(OCC5CCNCC5)c(OC)cc34)c(F)c2)cc1OC` displays IC50 of 50 to 500 nM

According to the records, this compound `COc1cc2c(Oc3ccc(NC(=O)C(=O)NCc4cc(Cl)cc(Cl)c4)cc3F)ccnc2cc1OCC1CCNCC1` displays IC50 of < 50 nM

According to the records, this compound `CCCCc1ccc(CNC(=O)C(=O)Nc2ccc(Oc3ccnc4cc(OCC5CCNCC5)c(OC)cc34)c(F)c2)cc1` displays IC50 of 50 to 500 nM

According to the records, this compound `COc1cc2c(Oc3ccc(NC(=O)C(=O)NCCc4ccc(F)cc4)cc3F)ccnc2cc1OCC1CCN(C)CC1` displays IC50 of < 50 nM

According to the records, this compound `COc1cc2c(Oc3ccc(NC(=O)C(=O)NC4CCCC4)cc3F)ccnc2cc1OCC1CCNCC1` displays IC50 of 50 to 500 nM

According to the records, this compound `COc1cc2c(Oc3ccc(NC(=O)C(=O)NCCOc4ccccc4)cc3F)ccnc2cc1OCC1CCNCC1` displays IC50 of < 50 nM

According to the records, this compound `COc1cc2c(Oc3ccc(NC(=O)C(=O)NCc4cccc(F)c4F)cc3F)ccnc2cc1OCC1CCNCC1` displays IC50 of 50 to 500 nM

According to the records, this compound `COc1cc2c(Oc3ccc(NC(=O)C(=O)NCc4cc(F)cc(F)c4)cc3F)ccnc2cc1OCC1CCNCC1` displays IC50 of < 50 nM

According to the records, this compound `COc1cc2c(Oc3ccc(NC(=O)C(=O)NCc4cccc(C(F)(F)F)c4F)cc3F)ccnc2cc1OCC1CCNCC1` displays IC50 of < 50 nM

According to the records, this compound `COc1ccc(Br)cc1CCNC(=O)C(=O)Nc1ccc(Oc2ccnc3cc(OCC4CCNCC4)c(OC)cc23)c(F)c1` displays IC50 of < 50 nM

According to the records, this compound `COc1cc2c(Oc3ccc(NC(=O)C(=O)NCc4c(F)cccc4F)cc3F)ccnc2cc1OCC1CCNCC1` displays IC50 of < 50 nM

Origin of the recorded values: patent US8476298B2
